# Tested on: Trypanosoma brucei rhodesiense
# PROCEDURE TEXT: Trypanocidal activity against Trypanosoma brucei rhodesiense STIB900 trypomastigotes incubated for 72 hrs by Alamar blue assay
# Assay type: functional, organism-based
# CONDITION PARAMETERS: STIB900, 72 h, read-out: pIC50 (converted)
Can you tell me IC50 for the items I'm about to list?
I'd appreciate it if you included the unit after the number.

Please review the entries below; each comes with its answer.
The recorded IC50 for "O=C1C=C(c2ccc(OC(F)(F)F)cc2)C(=O)c2ccccc21" is 2340 nM

The recorded IC50 for "O=C1C=C(c2ccc(Cl)cc2)C(=O)c2ccccc21" is 224 nM

The recorded IC50 for "O=C1C=C(c2cnc(Cl)nc2)C(=O)c2ccccc21" is 129 nM

Answer for every listed entry: what is its IC50? The entries follow.
1. O=C1C=C(c2cc(F)cc(F)c2)C(=O)c2ccccc21
2. CS(=O)(=O)Nc1cccc(C2=CC(=O)c3ccccc3C2=O)c1
3. O=C1C=C(c2ccc(C(=O)N3CCCCC3)cc2)C(=O)c2ccccc21

["240 nM", "200 nM", "741 nM"]
